- test-name: Toxicity against BALB/c mouse macrophage by MTT assay
- Type: cell-based
- condition-parameters: mouse macrophages
measured-parameter: IC50 (µM)
Numbers only here, please. The scale is µM.

Past entries and their recorded results:
INSERT INTO results (smiles_str, unit_descriptor, val) VALUES
  ('C=CCOc1cc(OC)c(C(=O)/C=C/c2ccccc2F)c(OCC=C)c1', 'µM', 13.3),
  ('C=CCOc1cc(OC)c(C(=O)/C=C/c2cc(OC)c(OC)c(OC)c2)c(OCC=C)c1', 'µM', 12);

Could you now look at the following compound, please?
Look up IC50 for this compound: C=CCOc1cc(OC)c(C(=O)/C=C/c2ccc(F)cc2)c(OCC=C)c1
13.8
